Target: HLA-A*02:03 (human)
Experiment: radioligand binding
Experimental Endpoint: IC50 (nM)
Dear colleague, please return just the value in nM, with no unit written.

Exam item: Please look up its IC50: RMSAPSTGGV [H3.3K27M_(26–35) peptide]
Marked response: 747
